# Tested on: LC-2-ad
# EXPERIMENT NOTES: relative viability (nuclei count vs DMSO), 5 days (fraction); higher = more cells survive
# PROTOCOL CONDITIONS: first compound 0.3162 µM
REPORTED PROPERTY: relative viability
Numbers only.

Provide each entry's relative viability from the list below.
1. CC(C)Oc1cc(Nc2nc(N[C@@H](C)c3ccc(F)cn3)ncc2Cl)n[nH]1 [AZ23] + CC1(C)CCC(c2ccc(Cl)cc2)=C(CN2CCN(c3ccc(C(=O)NS(=O)(=O)c4ccc(N[C@H](CCN5CCOCC5)CSc5ccccc5)c(S(=O)(=O)C(F)(F)F)c4)cc3)CC2)C1 [Navitoclax] (partner 0.5 µM)
2. CC(C)Oc1cc(Nc2nc(N[C@@H](C)c3ccc(F)cn3)ncc2Cl)n[nH]1 [AZ23] + CC(=O)c1c(C)c2cnc(Nc3ccc(N4CCNCC4)cn3)nc2n(C2CCCC2)c1=O [Palbociclib] (partner 0.5 µM)

### Response
1: 0.415; 2: 0.501

### Prompt Look up relative viability with LC-2-ad for this compound: CC(C)Oc1cc(Nc2nc(N[C@@H](C)c3ccc(F)cn3)ncc2Cl)n[nH]1 [AZ23] + CCNC(=O)c1noc(-c2cc(C(C)C)c(O)cc2O)c1-c1ccc(CN2CCOCC2)cc1 [Luminespib] (partner 0.01 µM)
### Response 0.93

---

Please provide measured relative viability for the entries that follow.
# Tested on: NCI-H2342
# EXPERIMENT NOTES: relative viability (nuclei count vs DMSO), 5 days (fraction); higher = more cells survive
# PROTOCOL CONDITIONS: first compound 2.53 µM
Numbers only.

>>> recorded_value("CCCCCCCCCCCC1=C(O)C(=O)C=C(O)C1=O [Embelin] + Nc1nc2[nH]cc(CCc3ccc(C(=O)N[C@@H](CCC(=O)O)C(=O)O)cc3)c2c(=O)[nH]1 [Pemetrexed] (partner 0.2 µM)")
0.859
>>> recorded_value("CCCCCCCCCCCC1=C(O)C(=O)C=C(O)C1=O [Embelin] + Cc1nc(Nc2ncc(C(=O)Nc3c(C)cccc3Cl)s2)cc(N2CCN(CCO)CC2)n1 [Dasatinib] (partner 0.075 µM)")
0.326
>>> recorded_value("CCCCCCCCCCCC1=C(O)C(=O)C=C(O)C1=O [Embelin] + CCNC(=O)c1noc(-c2cc(C(C)C)c(O)cc2O)c1-c1ccc(CN2CCOCC2)cc1 [Luminespib] (partner 0.01 µM)")
0.826
>>> recorded_value("CCCCCCCCCCCC1=C(O)C(=O)C=C(O)C1=O [Embelin] + CC(=O)c1c(C)c2cnc(Nc3ccc(N4CCNCC4)cn3)nc2n(C2CCCC2)c1=O [Palbociclib] (partner 0.5 µM)")
0.542

Hi there! I need relative viability for each item below, if you can.
1. CCCCCCCCCCCC1=C(O)C(=O)C=C(O)C1=O [Embelin] + CC(=O)Nc1cccc(-n2c(=O)n(C3CC3)c(=O)c3c(Nc4ccc(I)cc4F)n(C)c(=O)c(C)c32)c1 [Trametinib] (partner 0.02 µM)
2. CCCCCCCCCCCC1=C(O)C(=O)C=C(O)C1=O [Embelin] + Cc1cc(Nc2cc(N3CCN(C)CC3)nc(Sc3ccc(NC(=O)C4CC4)cc3)n2)n[nH]1 [Tozasertib] (partner 0.1 µM)

### Response
0.866
0.527

---

# System: NCI-H1734
# EXPERIMENT NOTES: relative viability (nuclei count vs DMSO), 5 days (fraction); higher = more cells survive
# PROTOCOL CONDITIONS: first compound 1.265 µM
I'd appreciate it if you could supply relative viability values for the items below.
Give bare numbers.

Field: example entries. Status: answers known.
>>> recorded_value("Clc1ccc(Nc2nnc(Cc3ccncc3)c3ccccc23)cc1 [Vatalanib] + O=C(CCCCCCC(=O)Nc1ccccc1)NO [Vorinostat] (partner 1 µM)")
0.761
>>> recorded_value("COc1cc(N2CCC(C(N)=O)CC2)ccc1Nc1nc(N)c(Cl)c(Nc2ccccc2S(=O)(=O)C(C)C)n1 [HG-5-88-01] + CS(=O)(=O)CCNCc1ccc(-c2ccc3ncnc(Nc4ccc(OCc5cccc(F)c5)c(Cl)c4)c3c2)o1 [Lapatinib] (partner 2 µM)")
0.982
>>> recorded_value("Clc1ccc(Nc2nnc(Cc3ccncc3)c3ccccc23)cc1 [Vatalanib] + C[C@@H](Oc1cc(-c2cnn(C3CCNCC3)c2)cnc1N)c1c(Cl)ccc(F)c1Cl [Crizotinib] (partner 1 µM)")
0.694

### Prompt Fill in: relative viability of COc1cc(N2CCC(C(N)=O)CC2)ccc1Nc1nc(N)c(Cl)c(Nc2ccccc2S(=O)(=O)C(C)C)n1 [HG-5-88-01] + Cc1cc(Nc2cc(N3CCN(C)CC3)nc(Sc3ccc(NC(=O)C4CC4)cc3)n2)n[nH]1 [Tozasertib] (partner 0.1 µM) is ___
### Response 0.243

---

# Test system: NCI-H1915
# EXPERIMENT NOTES: relative viability (nuclei count vs DMSO), 5 days (fraction); higher = more cells survive
# PROTOCOL CONDITIONS: first compound 0.08 µM
Please provide measured relative viability for the entries that follow.

Example cases with answers are listed next.
>>> recorded_value("CCCCCCCCCCCC1=C(O)C(=O)C=C(O)C1=O [Embelin] + COc1cccc2cc(-c3nc([C@H]4CC[C@H](C(=O)O)CC4)n4ncnc(N)c34)[nH]c12 [OSI-027] (partner 0.5 µM)")
0.679
>>> recorded_value("CCCCCCCCCCCC1=C(O)C(=O)C=C(O)C1=O [Embelin] + CC(=O)Nc1cccc(-n2c(=O)n(C3CC3)c(=O)c3c(Nc4ccc(I)cc4F)n(C)c(=O)c(C)c32)c1 [Trametinib] (partner 0.02 µM)")
0.319

Hi team, please reply with relative viability for each item in this list.
1. CCCCCCCCCCCC1=C(O)C(=O)C=C(O)C1=O [Embelin] + Cc1cc(Nc2cc(N3CCN(C)CC3)nc(Sc3ccc(NC(=O)C4CC4)cc3)n2)n[nH]1 [Tozasertib] (partner 0.1 µM)
2. CCCCCCCCCCCC1=C(O)C(=O)C=C(O)C1=O [Embelin] + NC(=O)Nc1cc(-c2cccc(F)c2)sc1C(=O)N[C@H]1CCCNC1 [AZD7762] (partner 0.2 µM)
3. CCCCCCCCCCCC1=C(O)C(=O)C=C(O)C1=O [Embelin] + CC(=O)c1c(C)c2cnc(Nc3ccc(N4CCNCC4)cn3)nc2n(C2CCCC2)c1=O [Palbociclib] (partner 0.5 µM)

### Response
1. 0.463
2. 0.72
3. 0.543

### Prompt Need relative viability of CCCCCCCCCCCC1=C(O)C(=O)C=C(O)C1=O [Embelin] + CS(=O)(=O)CCNCc1ccc(-c2ccc3ncnc(Nc4ccc(OCc5cccc(F)c5)c(Cl)c4)c3c2)o1 [Lapatinib] (partner 2 µM) , thanks.
### Response 0.96

---

# Tested on: EPLC-272H
# EXPERIMENT NOTES: relative viability (nuclei count vs DMSO), 5 days (fraction); higher = more cells survive
# PROTOCOL CONDITIONS: first compound 4 µM
# label = MET if relative viability < 0.3 else NOT MET

Recorded results for 8 compounds are shown here.
>>> class_name("C[C@@H]1CN(CC(=O)Nc2ccc3c(c2)Cc2cccc(-c4cc(=O)cc(N5CCOCC5)o4)c2S3)C[C@H](C)O1 + NC(=O)Nc1cc(-c2cccc(F)c2)sc1C(=O)N[C@H]1CCCNC1 [AZD7762] (partner 0.2 µM)")
"NOT MET"
>>> class_name("Clc1ccc(Nc2nnc(Cc3ccncc3)c3ccccc23)cc1 [Vatalanib] + Cc1nc(Nc2ncc(C(=O)Nc3c(C)cccc3Cl)s2)cc(N2CCN(CCO)CC2)n1 [Dasatinib] (partner 0.075 µM)")
"NOT MET"
>>> class_name("C[C@@H]1CN(CC(=O)Nc2ccc3c(c2)Cc2cccc(-c4cc(=O)cc(N5CCOCC5)o4)c2S3)C[C@H](C)O1 + C[C@@H](Oc1cc(-c2cnn(C3CCNCC3)c2)cnc1N)c1c(Cl)ccc(F)c1Cl [Crizotinib] (partner 1 µM)")
"NOT MET"
>>> class_name("COc1cc(N2CCC(C(N)=O)CC2)ccc1Nc1nc(N)c(Cl)c(Nc2ccccc2S(=O)(=O)C(C)C)n1 [HG-5-88-01] + Nc1ncn([C@H]2C[C@H](O)[C@@H](CO)O2)c(=O)n1 [Decitabine] (partner 2 µM)")
"MET"
>>> class_name("COc1cc(N2CCC(C(N)=O)CC2)ccc1Nc1nc(N)c(Cl)c(Nc2ccccc2S(=O)(=O)C(C)C)n1 [HG-5-88-01] + CC1(C)CCC(c2ccc(Cl)cc2)=C(CN2CCN(c3ccc(C(=O)NS(=O)(=O)c4ccc(N[C@H](CCN5CCOCC5)CSc5ccccc5)c(S(=O)(=O)C(F)(F)F)c4)cc3)CC2)C1 [Navitoclax] (partner 0.5 µM)")
"MET"
>>> class_name("COc1cc(N2CCC(C(N)=O)CC2)ccc1Nc1nc(N)c(Cl)c(Nc2ccccc2S(=O)(=O)C(C)C)n1 [HG-5-88-01] + CC(C)C[C@H](NC(=O)[C@H](Cc1ccccc1)NC(=O)c1cnccn1)B(O)O [Bortezomib] (partner 0.002 µM)")
"NOT MET"
>>> class_name("COc1cc(N2CCC(C(N)=O)CC2)ccc1Nc1nc(N)c(Cl)c(Nc2ccccc2S(=O)(=O)C(C)C)n1 [HG-5-88-01] + COc1cc2c(Oc3ccc(NC(=O)C4(C(=O)Nc5ccc(F)cc5)CC4)cc3F)ccnc2cc1OCCCN1CCOCC1 [Foretinib] (partner 0.25 µM)")
"MET"
>>> class_name("COc1cc(N2CCC(C(N)=O)CC2)ccc1Nc1nc(N)c(Cl)c(Nc2ccccc2S(=O)(=O)C(C)C)n1 [HG-5-88-01] + CS(=O)(=O)CCNCc1ccc(-c2ccc3ncnc(Nc4ccc(OCc5cccc(F)c5)c(Cl)c4)c3c2)o1 [Lapatinib] (partner 2 µM)")
"MET"

### Prompt Would you kindly verify if relative viability of COc1cc(N2CCC(C(N)=O)CC2)ccc1Nc1nc(N)c(Cl)c(Nc2ccccc2S(=O)(=O)C(C)C)n1 [HG-5-88-01] + CC(=O)c1c(C)c2cnc(Nc3ccc(N4CCNCC4)cn3)nc2n(C2CCCC2)c1=O [Palbociclib] (partner 0.5 µM) is strictly less than 0.3?
### Response MET

Where do the numbers come from? From the supplement of paper PMC10307832.
